assay: Hepatic clearance in human hepatocytes in absence of fetal calf serum; details: human hepatocytes
MEASURED_ATTRIBUTE: CLhep predicted (mL/min/kg)
Report only the number, with the unit mL/min/kg understood.

Would you please look over these solved cases?
C=CCN1CC[C@]23c4c5ccc(O)c4O[C@H]2C(=O)CC[C@@]3(O)[C@H]1C5 :: 19.5
COc1ccc([C@@H]2Sc3ccccc3N(CCN(C)C)C(=O)[C@@H]2OC(C)=O)cc1 :: 12.8
CCc1cccc2c3c([nH]c12)C(CC)(CC(=O)O)OCC3 (centres undefined) :: 1.31
CC(C)(O)c1ccccc1CC[C@@H](SCC1(CC(=O)O)CC1)c1cccc(/C=C/c2ccc3ccc(Cl)cc3n2)c1 :: 1.27
Cc1nccn1CC1CCc2c(c3ccccc3n2C)C1=O (centres undefined) :: 5.9

Challenge: Fill in: CLhep predicted of CC(C)c1nc(CN(C)C(=O)N[C@H](C(=O)N[C@@H](Cc2ccccc2)C[C@H](O)[C@H](Cc2ccccc2)NC(=O)OCc2cncs2)C(C)C)cs1 is ___
Response given: 1.2

Challenge: Fill in: CLhep predicted of Cc1cn([C@H]2C[C@H](N=[N+]=[N-])[C@@H](CO)O2)c(=O)[nH]c1=O is ___
Response given: 12.4

Challenge: Fill in: CLhep predicted of Cc1c(C)c2c(c(C)c1O)CCC(C)(COc1ccc(CC3SC(=O)NC3=O)cc1)O2 (centres undefined) is ___
Response given: 9

Challenge: Fill in: CLhep predicted of O=C1Nc2ccc(Cl)cc2C(c2ccccc2Cl)=NC1O (centres undefined) is ___
Response given: 1.1

====

tested on: Hepatocyte; assay: Hepatic clearance in human hepatocytes in absence of fetal calf serum; settings: hepatocytes
Quick reference for logCL among some compounds
Could you keep your reply to the number by itself?

CC(=O)CC(c1ccccc1)c1c(O)c2ccccc2oc1=O (stereo not given) [WARFARIN] :: -0.7959
CCc1cccc2c3c([nH]c12)C(CC)(CC(=O)O)OCC3 (stereo not given) [ETODOLAC] :: 0.1173
CCCCC1=NC2(CCCC2)C(=O)N1Cc1ccc(-c2ccccc2-c2nnn[nH]2)cc1 [IRBESARTAN] :: 0.5855

Challenge: Fill in: logCL of O=C1Nc2ccc(Cl)cc2C(c2ccccc2Cl)=NC1O (stereo not given) [LORAZEPAM] is ___
Response given: 0.0414

Challenge: Fill in: logCL of CN1C2CCCC1CC(NC(=O)c1nn(C)c3ccccc13)C2 (stereo not given) [GRANISETRON] is ___
Response given: 1.0414

====

tested on: Hepatocyte; test: Hepatic clearance in human hepatocytes in absence of fetal calf serum; settings: hepatocytes
MEASURED_ATTRIBUTE: logCL
Could you keep your reply to the number by itself?

Would you please look over these solved cases?
O=C(O)Cc1ccccc1Nc1c(Cl)cccc1Cl :: 0.8651
CCCc1nn(C)c2c(=O)[nH]c(-c3cc(S(=O)(=O)N4CCN(C)CC4)ccc3OCC)nc12 :: 0.7782
COCCc1ccc(OCC(O)CNC(C)C)cc1 (centres undefined) :: 1.0846
CCOc1ccc(NC(C)=O)cc1 :: 1.2833
Cc1nccn1CC1CCc2c(c3ccccc3n2C)C1=O (centres undefined) :: 0.7709

Now turn to the next compound.
Challenge: Fill in: logCL of CCN(CC)CC(=O)Nc1c(C)cccc1C is ___
Response given: 1.1761
